Study System: PI3Kα (p85iSH2(461-568)-p110α(21-1068)-His, BV1075) (Homo sapiens (Human))
Sequence (P42336 other isoform, or with tags, fused parts or gaps): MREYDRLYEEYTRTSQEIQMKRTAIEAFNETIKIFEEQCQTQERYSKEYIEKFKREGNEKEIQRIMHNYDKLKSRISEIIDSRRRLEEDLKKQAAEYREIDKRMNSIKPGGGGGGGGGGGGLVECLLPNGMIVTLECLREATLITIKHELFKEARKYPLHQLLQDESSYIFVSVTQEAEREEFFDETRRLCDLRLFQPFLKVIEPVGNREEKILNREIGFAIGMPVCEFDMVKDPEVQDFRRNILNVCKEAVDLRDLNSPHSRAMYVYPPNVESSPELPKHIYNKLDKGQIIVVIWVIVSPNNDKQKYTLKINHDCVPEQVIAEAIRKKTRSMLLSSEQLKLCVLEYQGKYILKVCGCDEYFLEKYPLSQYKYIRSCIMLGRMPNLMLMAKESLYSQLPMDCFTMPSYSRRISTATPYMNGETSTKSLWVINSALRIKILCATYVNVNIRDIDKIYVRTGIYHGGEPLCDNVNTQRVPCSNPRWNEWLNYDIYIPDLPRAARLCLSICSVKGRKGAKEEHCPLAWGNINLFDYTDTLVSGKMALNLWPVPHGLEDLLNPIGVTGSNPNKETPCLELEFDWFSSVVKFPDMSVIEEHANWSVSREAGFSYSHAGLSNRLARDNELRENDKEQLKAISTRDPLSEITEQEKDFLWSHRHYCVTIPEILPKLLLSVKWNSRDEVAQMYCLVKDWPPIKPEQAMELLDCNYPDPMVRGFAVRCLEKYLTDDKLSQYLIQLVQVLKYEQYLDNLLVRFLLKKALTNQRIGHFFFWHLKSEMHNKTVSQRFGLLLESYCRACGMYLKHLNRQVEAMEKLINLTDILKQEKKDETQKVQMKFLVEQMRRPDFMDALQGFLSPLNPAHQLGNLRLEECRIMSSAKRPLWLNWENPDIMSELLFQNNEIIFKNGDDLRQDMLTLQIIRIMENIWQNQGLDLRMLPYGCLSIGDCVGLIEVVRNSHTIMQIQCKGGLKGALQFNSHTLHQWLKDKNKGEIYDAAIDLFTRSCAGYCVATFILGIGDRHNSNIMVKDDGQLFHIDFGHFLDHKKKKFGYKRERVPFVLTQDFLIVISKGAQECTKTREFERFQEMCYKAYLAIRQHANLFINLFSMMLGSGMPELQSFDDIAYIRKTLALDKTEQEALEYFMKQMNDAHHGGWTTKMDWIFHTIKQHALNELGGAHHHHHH
Measurement Notes: PI3K KinaseGlo assay, PI3Kalpha
Format: biochemical
Setup Conditions: KinaseGlo, 1 μM ATP, 10 nM enzyme, 30 mins
Quantity Name: IC50 (µM)

Qu. Entry [2H]C([2H])([2H])C(c1nccc(-c2sc(NC(=O)N3CCC[C@@]3(C)C(N)=O)nc2C)n1)(C([2H])([2H])[2H])C([2H])([2H])[2H] [Example 111] , system PI3Kα (p85iSH2(461-568)-p110α(21-1068)-His, BV1075) (Homo sapiens (Human)): what IC50 was measured?
Ans. 0.052

P: Cc1nc(NC(=O)N2CCC[C@@]2(C)C(N)=O)sc1-c1ccnc(CC2CC2)n1 [Example 110]
Q: Cc1nc(NC(=O)N2CCC[C@@]2(CN(C)C)C(N)=O)sc1-c1ccnc(C(C)(C)C)n1 [Example 107]
R: COc1ccc(C2(c3cc(-c4sc(NC(=O)N5CCC[C@@]5(C)C(N)=O)nc4C)ccn3)CC2)cc1 [Example 54]
S: COc1ccc(C(C)(C)c2cc(-c3cnc(NC(=O)N4CCC[C@@]4(C)C(N)=O)s3)ccn2)cc1 [Example 124]
Qu. # ascending order, key=IC50 Give the labels in the order requested.
Ans. S, Q, P, R
